# Tested Target: T1, IL-1beta (UniProt P01584 117-269)
# T1 construct: also called IL-1β
# Experiment Summary: Biacore
Listed next: entries and their corresponding fold difference in affinity vs parental.
Write the number in fold without appending the unit.

Solved entries:
>  <Binder>
XPA23 Fab, heavy chain S105E (Fab, V domains shown) VH: EVQLLESGGGLVQPGGSLRLSCAASGFTFSKYFMFWVRQAPGKGLEWVSVISPSGGMTRYADSVKGRFTISRDNSKNTLYLQMNSLRAEDTAVYYCARVGYGGNEDYWGQGTLVTVSS VL: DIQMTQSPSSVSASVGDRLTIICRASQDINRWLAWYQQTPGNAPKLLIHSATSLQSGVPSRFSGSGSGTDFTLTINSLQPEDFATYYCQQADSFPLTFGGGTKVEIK

>  <Endpoint Label>
fold difference in affinity vs parental

>  <Readout Value>
1.17

$$$$
>  <Binder>
XPA23 Fab, heavy chain F35N (Fab, V domains shown) VH: EVQLLESGGGLVQPGGSLRLSCAASGFTFSKYFMNWVRQAPGKGLEWVSVISPSGGMTRYADSVKGRFTISRDNSKNTLYLQMNSLRAEDTAVYYCARVGYGGNSDYWGQGTLVTVSS VL: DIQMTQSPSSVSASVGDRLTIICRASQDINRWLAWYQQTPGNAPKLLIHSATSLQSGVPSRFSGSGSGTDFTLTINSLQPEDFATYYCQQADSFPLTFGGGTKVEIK

>  <Endpoint Label>
fold difference in affinity vs parental

>  <Readout Value>
0.86

$$$$

Moving on to another binder below.
IN: I am curious: what fold difference in affinity vs parental value has been reported for XPA23 Fab, heavy chain D106R (Fab, V domains shown) VH: EVQLLESGGGLVQPGGSLRLSCAASGFTFSKYFMFWVRQAPGKGLEWVSVISPSGGMTRYADSVKGRFTISRDNSKNTLYLQMNSLRAEDTAVYYCARVGYGGNSRYWGQGTLVTVSS VL: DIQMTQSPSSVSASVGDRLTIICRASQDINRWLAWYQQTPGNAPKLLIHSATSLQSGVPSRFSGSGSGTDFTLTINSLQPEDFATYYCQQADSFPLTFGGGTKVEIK ?
OUT: 0.06

All figures here come from patent US20110118131A1.
